# Test system: SNB-19
# assay.protocol: Cytotoxicity against human SNB19 cells assessed as cell growth at 10 uM after 48 hrs by SRB assay relative to control
# Type: functional
# conditions.used: SNB-19, 48 h, read-out: Activity
Kindly supply the reported growth at 10 µM values for the records listed here.
Answers are plain numbers, in %.

Below: 5 compounds and their reported growth at 10 µM.
record.smiles | growth at 10 µM, %
CC(C)n1cc(C2=C(c3c[nH]c4ccccc34)C(=O)N(O)C2=O)c2ccccc21 | 111
Cn1cc(C2=C(c3c[nH]c4ccccc34)C(=O)N(O)C2=O)c2ccccc21 | 97.5
Cn1cc(C2=C(c3cn(C)c4ccccc34)C(=O)N(O)C2=O)c2ccccc21 | 102
O=C(O)CCCCCn1cc(C2=C(c3c[nH]c4ccccc34)C(=O)N(O)C2=O)c2ccccc21 | 107
Cn1cc(C2=C(c3cn(CCCCCC#N)c4ccccc34)C(=O)N(O)C2=O)c2ccccc21 | 104

Please report growth at 10 µM for every entry that follows.
1. CC(C)n1cc(C2=C(c3cn(C)c4ccccc34)C(=O)N(O)C2=O)c2ccccc21
2. Cn1cc(C2=C(c3cn(CCCCCC(=O)O)c4ccccc34)C(=O)N(O)C2=O)c2ccccc21

(A)
[101, 104]
